Experimental System: Fes (UniProt P07332)
Sequence (P07332 whole entry, looked up): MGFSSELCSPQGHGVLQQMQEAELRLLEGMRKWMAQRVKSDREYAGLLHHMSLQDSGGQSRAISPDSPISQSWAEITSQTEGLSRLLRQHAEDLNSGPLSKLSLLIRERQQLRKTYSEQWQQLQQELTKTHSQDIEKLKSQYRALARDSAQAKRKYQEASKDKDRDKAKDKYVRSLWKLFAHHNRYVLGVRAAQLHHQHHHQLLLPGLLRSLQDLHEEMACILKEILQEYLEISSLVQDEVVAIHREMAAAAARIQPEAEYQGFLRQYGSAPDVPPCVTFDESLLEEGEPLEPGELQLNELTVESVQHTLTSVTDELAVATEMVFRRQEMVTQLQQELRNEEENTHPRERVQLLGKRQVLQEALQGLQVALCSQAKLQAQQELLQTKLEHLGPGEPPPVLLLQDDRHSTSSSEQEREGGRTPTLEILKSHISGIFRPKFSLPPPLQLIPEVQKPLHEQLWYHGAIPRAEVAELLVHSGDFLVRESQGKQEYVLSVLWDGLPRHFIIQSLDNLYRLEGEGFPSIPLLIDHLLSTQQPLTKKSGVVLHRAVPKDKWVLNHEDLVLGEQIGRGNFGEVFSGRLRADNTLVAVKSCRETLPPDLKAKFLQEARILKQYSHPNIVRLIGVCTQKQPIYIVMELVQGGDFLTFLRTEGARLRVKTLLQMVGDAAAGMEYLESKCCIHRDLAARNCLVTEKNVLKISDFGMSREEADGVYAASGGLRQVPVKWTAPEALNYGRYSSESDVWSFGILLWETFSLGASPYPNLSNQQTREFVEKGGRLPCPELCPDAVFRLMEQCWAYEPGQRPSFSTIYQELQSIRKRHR
Experiment Description: phosphorylation enrichment, bacterial display (enrichment ratio); higher = better substrate or ligand; peptides without Tyr show the background;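 note: 11-residue human phosphosite peptides and single-mutation variants displayed on the E. coli surface, counted by deep sequencing, each peptide's frequency after selection divided by its frequency in the unselected input library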;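 note: frequency after pTyr selection over input frequency; kinase dosed for 20-30% of maximal phosphorylation in three min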

| Polymer Sequence | phosphorylation enrichment |
| --- | --- |
| NQDRTYFERVR [SPEN_Y632_S635R_YF] | 0.648 |
| SLNEEYTKNKT [MSH2_Y563] | 0.786 |
| LPSKDYAEVRR [HP_Y272_G276R] | 0.832 |
| MHFSNYVSKGS [PDGFRA_Y849_D846Y_YF] | 0.578 |
| LTVVIYVLVGR [EPHA3_Y561_I564V] | 0.63 |
| FKTPTYPFLLP [PLD2_Y578_YF] | 0.693 |
| LQTFRYHGHSM [PDHA1_Y289_YF] | 1.06 |
| VSYDEYRYRSV [CFTR_Y515] | 0.942 |
| ESMLRYDVYGG [STOX1_Y607_E608D] | 0.972 |
| KIDAKYKKKIE [WDR19_Y1230] | 0.891 |
| FFHCTYKKRMI [CLEC12A_Y242_YF] | 1.06 |
| ISRASYYRKGG [ALK_Y1282_Y1278S] | 0.701 |
| MASTSYDYCRV [BST2_Y6] | 0.68 |
| SLIDMYSEVPD [OPA1_Y268_L272P] | 1.03 |
| ADRSCYDLSCR [GARS1_Y467_H472R] | 0.835 |
| PMQLPYDSRWE [PDGFRA_Y582] | 0.854 |
| EAVSIYQFYGQ [CBLC_Y402_H405Y] | 1.38 |
| HLVLNYGVCVC [JAK2_Y613] | 2.31 |
| SVTCTYSPAIN [TP53_Y126_L130I] | 1.83 |
| DCAAIYGNEPD [AKR1A1_Y50_E55D] | 1.64 |
| TSNQEYLDVSM [FGFR1_Y766_L769V] | 1.06 |
| KNRDVYSSDFF [USP24_Y2134_YF] | 0.828 |
| LGRGKSSEVFE [CSNK2A1_Y50_Y50S] | 1.01 |
| DAASNYARGHF [TUBA3E_Y103_YF] | 0.584 |
| SISLKYEGRVF [ABL1_Y167_R166K_YF] | 1.31 |
| NFGTNYRVGSS [CPO_Y278_K273N_YF] | 0.716 |
| FQLENYCNGGG [INS_Y108_YF] | 1.41 |
| KSLFHHRQYSA [CPS1_Y1491_Y1491H] | 0.547 |
| GMEIVYVFVKK [DNAI2_Y5_YF] | 1.44 |
